Consider the following pIC50 data for the protein given by its sequence, collected from several reports.
Sequence of the target: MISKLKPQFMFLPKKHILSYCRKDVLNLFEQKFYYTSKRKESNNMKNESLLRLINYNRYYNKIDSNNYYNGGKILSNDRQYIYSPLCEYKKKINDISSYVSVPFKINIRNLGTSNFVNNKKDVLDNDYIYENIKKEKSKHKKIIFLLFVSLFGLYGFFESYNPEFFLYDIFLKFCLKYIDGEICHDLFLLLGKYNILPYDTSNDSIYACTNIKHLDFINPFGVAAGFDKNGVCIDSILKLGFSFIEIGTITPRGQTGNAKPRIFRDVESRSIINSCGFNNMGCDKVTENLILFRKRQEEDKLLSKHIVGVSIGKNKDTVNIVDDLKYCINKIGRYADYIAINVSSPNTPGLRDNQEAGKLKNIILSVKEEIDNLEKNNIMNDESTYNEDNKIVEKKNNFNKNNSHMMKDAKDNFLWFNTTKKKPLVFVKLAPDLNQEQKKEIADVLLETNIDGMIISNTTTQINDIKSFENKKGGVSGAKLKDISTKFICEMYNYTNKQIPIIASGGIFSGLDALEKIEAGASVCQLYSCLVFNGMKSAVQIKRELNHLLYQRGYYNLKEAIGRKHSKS
pIC50: −log10 of the molar value.

Some molecules with known pIC50 results, for comparison:
Cc1cc(O)n2nc(SCc3ccccc3[N+](=O)[O-])nc2n1
< 4.00
CCOC(=O)c1sc(Nc2ccc3ccccc3c2)nc1-c1ccccc1
< 5.00
CC(=O)c1sc(Nc2ccc(Br)cc2)nc1C
< 5.00
Cc1cc(Nc2ccccc2C)n2ncnc2n1
< 4.00
CCOC(=O)c1sc(Nc2ccc3c(c2)OCO3)nc1-c1ccccc1
< 5.00

Continue with the next molecule.
CN(C(=O)c1ccc2ccccc2c1)c1ccccc1C(=O)O has a reported pIC50 of < 3.70
